Biological target: ANO1 (Homo sapiens, UniProt Q5XXA6)
Sequence (Q5XXA6 whole entry): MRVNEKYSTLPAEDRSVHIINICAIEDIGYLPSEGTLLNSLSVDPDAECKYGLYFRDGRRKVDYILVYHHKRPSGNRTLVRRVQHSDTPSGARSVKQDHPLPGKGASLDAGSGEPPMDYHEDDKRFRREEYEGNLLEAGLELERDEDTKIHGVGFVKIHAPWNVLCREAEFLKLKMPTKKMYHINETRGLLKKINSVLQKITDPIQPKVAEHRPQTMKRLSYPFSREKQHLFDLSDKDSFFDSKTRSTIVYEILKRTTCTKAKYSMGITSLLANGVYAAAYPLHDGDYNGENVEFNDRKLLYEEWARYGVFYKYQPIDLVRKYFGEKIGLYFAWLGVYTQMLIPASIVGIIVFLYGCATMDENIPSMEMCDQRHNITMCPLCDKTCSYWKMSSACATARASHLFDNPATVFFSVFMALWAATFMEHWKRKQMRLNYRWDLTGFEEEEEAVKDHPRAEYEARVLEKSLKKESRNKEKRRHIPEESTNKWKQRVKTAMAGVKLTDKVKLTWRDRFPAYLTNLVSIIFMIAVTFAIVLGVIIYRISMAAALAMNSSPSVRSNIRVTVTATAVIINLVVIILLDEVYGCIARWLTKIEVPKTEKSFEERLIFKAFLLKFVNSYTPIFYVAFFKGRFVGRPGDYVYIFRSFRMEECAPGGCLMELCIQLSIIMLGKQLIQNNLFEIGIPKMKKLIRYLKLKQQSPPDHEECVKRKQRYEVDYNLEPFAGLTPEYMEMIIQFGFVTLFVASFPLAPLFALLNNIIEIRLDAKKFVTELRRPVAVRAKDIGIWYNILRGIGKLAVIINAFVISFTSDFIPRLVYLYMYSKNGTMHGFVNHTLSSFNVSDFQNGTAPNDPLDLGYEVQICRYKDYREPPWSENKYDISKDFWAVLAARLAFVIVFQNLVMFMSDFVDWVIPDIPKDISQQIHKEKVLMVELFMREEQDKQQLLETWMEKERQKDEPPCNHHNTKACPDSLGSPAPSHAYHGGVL
Test: YFP fluorescence quenching in FRT cells expressing human ANO1; also Ussing chamber and whole-cell patch clamp in HEK293T
# IC50 per entry
PROPERTY_LABEL: IC50

[[record]]
molecule = "Oc1ccc(/C=C\\c2cc(O)cc(O)c2)cc1 [cis-resveratrol]"
property_label = "IC50"
result = "10.6 µM"

[[record]]
molecule = "Oc1ccc(/C=C/c2cc(O)cc(O)c2)cc1 [trans-resveratrol]"
property_label = "IC50"
result = "102 µM"

